The reported numbers originate from patent US20260242478A1.

Anti-PSMA Fab (SEQ ID NOs: 19, 20) signal listing for selected binders.
- Tgt: T1, Anti-PSMA Fab (SEQ ID NOs: 19, 20)
- T1 construct: Biotinylated and captured on neutravidin coated plates in the phage ELISA; also called 006 PSMA Fab
- Protocol details: phage binding ELISA, clonal phage on plate-captured biotinylated PSMA Fab
Where no end group is shown, it is not given here.

Here is how some binders turned out for Anti-PSMA Fab (SEQ ID NOs: 19, 20) signal.
- Binder: "LLKWCTPPWMCELH [Phage-2229]"
  Observed measurement: 1.57
- Binder: "EIQWCTPSWMCPWL [Phage-2233]"
  Observed measurement: 1.57
- Binder: "FNKWCVPAWMCSDM [Phage-2235]"
  Observed measurement: 1.56

Give its Anti-PSMA Fab (SEQ ID NOs: 19, 20) signal value. Item: QLNWCRPAWMCEGF [Phage-2232]
1.57

Give its Anti-PSMA Fab (SEQ ID NOs: 19, 20) signal value. Item: LAYWCTPAWMCEGF [Phage-2226]
1.57

Give its Anti-PSMA Fab (SEQ ID NOs: 19, 20) signal value. Item: PRKWCIPAWMCEII [Phage-2236]
1.56

Give its Anti-PSMA Fab (SEQ ID NOs: 19, 20) signal value. Item: MPNWCTPTWMCQGF [Phage-2234]
1.57

Give its Anti-PSMA Fab (SEQ ID NOs: 19, 20) signal value. Item: LVKWCIPQWMCEQA [Phage-2228]
1.57

Give its Anti-PSMA Fab (SEQ ID NOs: 19, 20) signal value. Item: TDMWCIPPWMCERI [Phage-2230]
1.57

Give its Anti-PSMA Fab (SEQ ID NOs: 19, 20) signal value. Item: FLKWCTPEWMCSDV [Phage-2223]
1.58

Give its Anti-PSMA Fab (SEQ ID NOs: 19, 20) signal value. Item: LSKWCIPEWMCAVM (cysteine pairing not given here; also: pIII fusion on bacteriophage (not given here)) [Phage-2231]
1.57

Give its Anti-PSMA Fab (SEQ ID NOs: 19, 20) signal value. Item: SELWCIPPWMCNFL [Phage-2227]
1.57

Give its Anti-PSMA Fab (SEQ ID NOs: 19, 20) signal value. Item: AIKWCTPPWMCDWH [Phage-2224]
1.58
